experiment: PK study in rats after single i.g. administration of IMMH-010 maleate; format: in vivo, Sprague-Dawley rats; settings: female, Sprague-Dawley, po; rat plasma; single i.g. IMMH-010 maleate 100 mg/kg; mean ± SD, n = 5; read-out: MRT(0-∞)
endpoint.label: MRT inf (h)

I = CC(C)OC(=O)C(CO)NCc1cc(Cl)c(OCc2cccc(-c3ccccc3)c2Br)cc1OCc1cccnc1 (centres unmarked) [IMMH-010]
II = O=C(O)[C@H](CO)NCc1cc(Cl)c(OCc2cccc(-c3ccccc3)c2Br)cc1OCc1cccnc1 [YPD-29B]
Ask: Consider entries I and II . Which has the numerically lower MRT inf? Mark your answer with the label of the selected entry.
Result: I

* * *

Assay: Tissue distribution study in rats
Format: in vivo, Sprague-Dawley rats
Details: female, Sprague-Dawley, rat, oral; kidney; time 4; i.g. 10 mg/kg IMMH-010 maleate; read-out: T/P (tissue-to-plasma partition)
From the text: Female Sprague-Dawley rats (200 ± 20 g, Vital River, Beijing, China) were kept in standard environmental conditions. Rats were fasted overnight with free access to water and randomly assigned to different groups before the experiments. All animal protocols were approved by the Institute Animal Care and Welfare Committee of the Institute of Materia Medica, Chinese Academy of Medical Sciences and Peking Union Medical College. […]
endpoint.label: Kp at 4 h
Enter the number alone.

Ask: Given the compound O=C(O)[C@H](CO)NCc1cc(Cl)c(OCc2cccc(-c3ccccc3)c2Br)cc1OCc1cccnc1 [YPD-29B] , what is its reported Kp at 4 h?
Result: 34.6

* * *

test: Tissue distribution study in rats; type: in vivo, Sprague-Dawley rats; conditions: female, Sprague-Dawley, rat, oral; brain; time 0.25; i.g. 10 mg/kg IMMH-010 maleate; read-out: T/P (tissue-to-plasma partition)
endpoint.label: Kp at 0.25 h
Enter the number alone.

Ask: Given the compound CC(C)OC(=O)C(CO)NCc1cc(Cl)c(OCc2cccc(-c3ccccc3)c2Br)cc1OCc1cccnc1 (stereo not shown) , what is its reported Kp at 0.25 h?
Result: 1.9

* * *

assay: PK study in rats after single i.g. administration of IMMH-010 maleate; type: in vivo, Sprague-Dawley rats; conditions: female, Sprague-Dawley, po; rat plasma; single i.g. IMMH-010 maleate 10 mg/kg; mean ± SD, n = 5
endpoint.label: AUC(0-inf) (ng·h/mL)
# value in ng·h/mL; strip the unit string

Ask: Given the compound O=C(O)[C@H](CO)NCc1cc(Cl)c(OCc2cccc(-c3ccccc3)c2Br)cc1OCc1cccnc1 [YPD-29B] , what is its reported AUC(0-inf)?
Result: 110

* * *

assay: Tissue distribution study in rats; assay type: in vivo, Sprague-Dawley rats; details: female, Sprague-Dawley, rat, oral; lung; time 0.25; i.g. 10 mg/kg IMMH-010 maleate; read-out: T/P (tissue-to-plasma partition)
endpoint.label: Kp at 0.25 h
Enter the number alone.

Ask: Given the compound O=C(O)[C@H](CO)NCc1cc(Cl)c(OCc2cccc(-c3ccccc3)c2Br)cc1OCc1cccnc1 [YPD-29B] , what is its reported Kp at 0.25 h?
Result: 1.1

* * *

assay: PK study in rats after single i.g. administration of IMMH-010 maleate; format: in vivo, Sprague-Dawley rats; conditions: female, Sprague-Dawley, rat, plasma, po, 100 mg/kg, rat plasma; i.g. IMMH-010 maleate 10, 30 and 100 mg/kg, range over doses; read-out: average plasma elimination half-life (t1/2β)
endpoint.label: half-life

Ask: Given the compound O=C(O)[C@H](CO)NCc1cc(Cl)c(OCc2cccc(-c3ccccc3)c2Br)cc1OCc1cccnc1 [YPD-29B] , what is its reported half-life?
Result: 1.57 to 3.65 h

* * *

test: Tissue distribution study in rats; type: in vivo, Sprague-Dawley rats; settings: female, Sprague-Dawley, rat, oral; heart; time 0.25; i.g. 10 mg/kg IMMH-010 maleate; read-out: T/P (tissue-to-plasma partition)
endpoint.label: Kp at 0.25 h

1 = CC(C)OC(=O)C(CO)NCc1cc(Cl)c(OCc2cccc(-c3ccccc3)c2Br)cc1OCc1cccnc1 (centres unmarked)
2 = O=C(O)[C@H](CO)NCc1cc(Cl)c(OCc2cccc(-c3ccccc3)c2Br)cc1OCc1cccnc1 [YPD-29B]
Ask: Which of the two items, 1 and 2 , has the greater recorded Kp at 0.25 h? Mark your answer with the label of the selected entry.
Result: 1
(1: 5.4, 2: 0.5)

* * *

experiment: Tissue distribution study in rats; format: in vivo, Sprague-Dawley rats; conditions: female, Sprague-Dawley, rat, oral; brain; time 0.5; i.g. 10 mg/kg IMMH-010 maleate; read-out: T/P (tissue-to-plasma partition)
endpoint.label: Kp at 0.5 h
Enter the number alone.

Ask: Given the compound CC(C)OC(=O)C(CO)NCc1cc(Cl)c(OCc2cccc(-c3ccccc3)c2Br)cc1OCc1cccnc1 (stereo not shown) , what is its reported Kp at 0.5 h?
Result: 0.9

* * *

Assay: PK study in rats after single i.g. administration of IMMH-010 maleate
Format: in vivo, Sprague-Dawley rats
Conditions: female, Sprague-Dawley, po; rat plasma; single i.g. IMMH-010 maleate 100 mg/kg; mean ± SD, n = 5
Text: Female Sprague-Dawley rats (200 ± 20 g, Vital River, Beijing, China) were kept in standard environmental conditions. Rats were fasted overnight with free access to water and randomly assigned to different groups before the experiments. All animal protocols were approved by the Institute Animal Care and Welfare Committee of the Institute of Materia Medica, Chinese Academy of Medical Sciences and Peking Union Medical College. IMMH-010 maleate was suspended in 0.5% sodium carboxymethyl cellulose. […]
endpoint.label: AUC(0-inf) (ng·h/mL)

a = CC(C)OC(=O)C(CO)NCc1cc(Cl)c(OCc2cccc(-c3ccccc3)c2Br)cc1OCc1cccnc1 (centres unmarked) [IMMH-010]
b = O=C(O)[C@H](CO)NCc1cc(Cl)c(OCc2cccc(-c3ccccc3)c2Br)cc1OCc1cccnc1 [YPD-29B]
Ask: Which of the two items, a and b , has the greater recorded AUC(0-inf)? Mark your answer with the label of the selected entry.
Result: b

* * *

experiment: PK study in rats after single i.g. administration of IMMH-010 maleate; type: in vivo, Sprague-Dawley rats; conditions: female, Sprague-Dawley, po; rat plasma; single i.g. IMMH-010 maleate 10 mg/kg; mean ± SD, n = 5
endpoint.label: Cmax (ng/mL)

A = O=C(O)[C@H](CO)NCc1cc(Cl)c(OCc2cccc(-c3ccccc3)c2Br)cc1OCc1cccnc1 [YPD-29B]
B = CC(C)OC(=O)C(CO)NCc1cc(Cl)c(OCc2cccc(-c3ccccc3)c2Br)cc1OCc1cccnc1 (centres unmarked)
Ask: Consider entries A and B . Which has the numerically lower Cmax? Mark your answer with the label of the selected entry.
Result: B

* * *

experiment: PK study in rats after single i.g. administration of IMMH-010 maleate; format: in vivo, Sprague-Dawley rats; conditions: female, Sprague-Dawley, po; rat plasma; single i.g. IMMH-010 maleate 100 mg/kg; median (range), n = 5
endpoint.label: Tmax (min)

A = O=C(O)[C@H](CO)NCc1cc(Cl)c(OCc2cccc(-c3ccccc3)c2Br)cc1OCc1cccnc1 [YPD-29B]
B = CC(C)OC(=O)C(CO)NCc1cc(Cl)c(OCc2cccc(-c3ccccc3)c2Br)cc1OCc1cccnc1 (centres unmarked)
Ask: Consider entries A and B . Which has the numerically lower Tmax? Mark your answer with the label of the selected entry.
Result: B
(B: 30 min, A: 60 min)

* * *

assay: Tissue distribution study in rats; assay type: in vivo, Sprague-Dawley rats; settings: female, Sprague-Dawley, rat, oral; spleen; time 0.25; i.g. 10 mg/kg IMMH-010 maleate; read-out: T/P (tissue-to-plasma partition)
endpoint.label: Kp at 0.25 h

I = CC(C)OC(=O)C(CO)NCc1cc(Cl)c(OCc2cccc(-c3ccccc3)c2Br)cc1OCc1cccnc1 (centres unmarked) [IMMH-010]
II = O=C(O)[C@H](CO)NCc1cc(Cl)c(OCc2cccc(-c3ccccc3)c2Br)cc1OCc1cccnc1 [YPD-29B]
Ask: Consider entries I and II . Which has the numerically lower Kp at 0.25 h? Mark your answer with the label of the selected entry.
Result: II

* * *

test: Tissue distribution study in rats; assay type: in vivo, Sprague-Dawley rats; settings: female, Sprague-Dawley, rat, oral; lung; time 4; i.g. 10 mg/kg IMMH-010 maleate; read-out: T/P (tissue-to-plasma partition)
endpoint.label: Kp at 4 h
Enter the number alone.

Ask: Given the compound O=C(O)[C@H](CO)NCc1cc(Cl)c(OCc2cccc(-c3ccccc3)c2Br)cc1OCc1cccnc1 [YPD-29B] , what is its reported Kp at 4 h?
Result: 4.4

* * *

assay: Tissue distribution study in rats; assay type: in vivo, Sprague-Dawley rats; settings: female, Sprague-Dawley, rat, oral; thymus; time 4; i.g. 10 mg/kg IMMH-010 maleate; read-out: T/P (tissue-to-plasma partition)
endpoint.label: Kp at 4 h
Enter the number alone.

Ask: Given the compound O=C(O)[C@H](CO)NCc1cc(Cl)c(OCc2cccc(-c3ccccc3)c2Br)cc1OCc1cccnc1 [YPD-29B] , what is its reported Kp at 4 h?
Result: 0.5

Numbers sourced from paper PMC8256334.
